Reference for the values: paper PMC10568017

# TEST_NAME: Metabolic stability in pooled human liver microsomes
# Assay type: in vitro ADME
# MEASUREMENT_CONTEXT: pooled human liver microsomes 0.5 mg/mL, 1 μM, t = 60 min, NADPH
MEASUREMENT_LABEL: residual of time zero (%)
Report as a plain number; the unit % is understood.

The examples below pair each entry with its known result.
{"MOLECULE": "CC12CCC(O)CC1=CCC1C2CCC2(C)C1CCC21CC=C(CCl)CO1 (stereo not shown)", "residual of time zero (%)": 92}
{"MOLECULE": "C[C@]12CC[C@H](O)CC1=CC[C@@H]1[C@@H]2CC[C@@]2(C)[C@H]1CCC21CC(=O)C1", "residual of time zero (%)": 95}

# ---- query molecule ----
## Task What measured residual of time zero goes with CCC1CCC2(CCC3C4CC=C5CC(O)CCC5(C)C4CCC32C)OC1 (stereo not shown) ?
## Result 95

* * *

# TEST_NAME: Metabolic stability in pooled human liver microsomes
# Assay type: in vitro ADME
# MEASUREMENT_CONTEXT: pooled human liver microsomes, 1 μM, 60 min

{"MOLECULE": "CCC1CCC2(CCC3C4CC=C5CC(O)CCC5(C)C4CCC32C)OC1 (stereo not drawn) [ENT-A069]", "parent structure loss (depletion) class": "slow (slow (5–19%))"}
{"MOLECULE": "C[C@]12CC[C@H](O)CC1=CC[C@@H]1[C@@H]2CC[C@@]2(C)[C@H]1CCC21CC(=O)C1 [ENT-A076]", "parent structure loss (depletion) class": "slow (slow (5–19%))"}
{"MOLECULE": "CC12CCC(O)CC1=CCC1C2CCC2(C)C1CCC21CC=C(CCl)CO1 (stereo not drawn) [ENT-A025]", "parent structure loss (depletion) class": "slow (slow (5–19%))"}

* * *

MEASUREMENT_LABEL: melting point

Some solved cases for reference:
{"COMPOUND": "C[C@]12CC[C@H](O)CC1=CC[C@@H]1[C@@H]2CC[C@@]2(C)[C@H]1CCC21CC(=CC#N)C1 (stereo partly shown)", "MEASUREMENT_LABEL": "melting point", "OBSERVED": "161 to 163 °C"}
{"COMPOUND": "C[C@]12CC[C@H](O)CC1=CC[C@@H]1[C@@H]2CC[C@@]2(C)[C@H]1CC[C@@]21CC=C(Cn2cc(CO)nn2)CO1", "MEASUREMENT_LABEL": "melting point", "OBSERVED": "202 to 204 °C"}
{"COMPOUND": "C[C@]12CC[C@H](O)CC1=CC[C@@H]1[C@@H]2CC[C@@]2(C)[C@H]1CC[C@@]21CC=C(Cn2cc(CC3CCCCC3)nn2)CO1", "MEASUREMENT_LABEL": "melting point", "OBSERVED": "181 °C (dec.)"}

## Task Requested field: melting point. Item: C[C@]12CC[C@H](O)CC1=CC[C@@H]1[C@@H]2CC[C@@]2(C)[C@H]1CCC21CC(=CC(=O)O)C1 (stereo partly shown)
## Result 221 °C (dec.)
